- Tested system: AMPK 221 (Homo sapiens, UniProt O43741+P54646)
- Construct: open reading frames encoding the full-length α2, β2 and δ1 subunits of human AMPK
- Sequence (P54646 whole entry): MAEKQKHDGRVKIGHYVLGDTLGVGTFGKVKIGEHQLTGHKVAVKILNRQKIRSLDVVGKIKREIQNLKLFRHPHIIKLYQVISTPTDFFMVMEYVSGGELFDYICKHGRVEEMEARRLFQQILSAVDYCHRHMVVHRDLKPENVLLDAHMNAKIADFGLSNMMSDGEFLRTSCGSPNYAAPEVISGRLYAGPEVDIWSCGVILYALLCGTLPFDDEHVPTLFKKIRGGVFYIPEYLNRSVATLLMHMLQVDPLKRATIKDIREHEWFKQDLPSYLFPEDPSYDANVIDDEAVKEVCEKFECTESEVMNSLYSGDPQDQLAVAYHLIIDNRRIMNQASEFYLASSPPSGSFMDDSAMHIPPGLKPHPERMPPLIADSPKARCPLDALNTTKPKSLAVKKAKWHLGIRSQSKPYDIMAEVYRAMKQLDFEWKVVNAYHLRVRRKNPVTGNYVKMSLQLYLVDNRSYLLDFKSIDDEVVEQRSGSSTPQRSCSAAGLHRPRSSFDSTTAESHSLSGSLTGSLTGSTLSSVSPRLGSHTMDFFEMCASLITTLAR
- Sequence (O43741 whole entry): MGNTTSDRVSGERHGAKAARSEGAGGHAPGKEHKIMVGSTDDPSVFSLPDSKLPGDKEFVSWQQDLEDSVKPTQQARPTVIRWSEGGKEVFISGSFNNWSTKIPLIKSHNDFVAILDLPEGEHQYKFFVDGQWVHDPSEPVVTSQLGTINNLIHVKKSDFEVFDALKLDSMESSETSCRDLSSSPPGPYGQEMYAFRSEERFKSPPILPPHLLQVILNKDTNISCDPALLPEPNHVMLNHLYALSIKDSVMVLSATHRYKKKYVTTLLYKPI
- Sequence (P54619 whole entry partner): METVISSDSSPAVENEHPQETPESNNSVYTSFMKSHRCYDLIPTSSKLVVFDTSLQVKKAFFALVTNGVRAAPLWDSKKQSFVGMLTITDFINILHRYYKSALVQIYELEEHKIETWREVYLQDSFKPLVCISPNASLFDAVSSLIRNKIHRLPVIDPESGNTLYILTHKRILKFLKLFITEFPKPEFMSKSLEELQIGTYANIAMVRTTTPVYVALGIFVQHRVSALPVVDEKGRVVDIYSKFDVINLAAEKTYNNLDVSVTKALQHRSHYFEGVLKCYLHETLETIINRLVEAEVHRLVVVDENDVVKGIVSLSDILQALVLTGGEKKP
- Assay method text: Biochemical profiling of AMPK activators by AMPK221 (HTRF/TR-FRET assay, SAMS peptide, PP2A dephosphorylation protection)
- Reported conditions: phosphorylated AMPK 221 (α2β2δ1); 11 point dilution, duplicate; 4-parameter fit
Field: pEC50. Provide a value for each of the compounds that follow.
Just so you know, pEC50 here is -log10 of the concentration in molar units; reply with that number alone.

# input Please give the measured pEC50 for this compound: Cc1cncc(O)c1-c1ccc(-c2cc3c(CCC(=O)O)n[nH]c3cc2Cl)cc1
# output 6.90

# input // query pEC50 value for entry O=C(O)CCCc1n[nH]c2cc(Cl)c(-c3ccc(-c4ccccc4O)cc3)cc12
# output 6.61

# input Consider the compound shown here: O=C(O)CSc1n[nH]c2cc(Cl)c(-c3ccc(-c4ccccc4O)cc3)cc12 What is its recorded pEC50?
# output 7.22

# input Please give the measured pEC50 for this compound: COc1cccc(-c2ccc(-c3cc4c(CCCC(=O)O)n[nH]c4cc3Cl)cc2)c1O
# output 7.18

# input Please look up its pEC50: COc1cccc(-c2ccc(-c3cc4c(CCC(=O)O)n[nH]c4cc3Cl)cc2)c1O
# output 7.47

# input Quick one: pEC50 for NC(=O)Cc1ccc(-c2ccc(-c3cc4c(CCC(=O)O)n[nH]c4cc3Cl)cc2)cc1 ?
# output 6.76

# input Please look up its pEC50: O=C(O)CCc1n[nH]c2cc(Cl)c(-c3ccc(-c4ccccc4)cc3)cc12
# output 6.45

# input Dear colleague, I am looking for the recorded pEC50 of the following compound: O=C(O)CCc1n[nH]c2cc(Cl)c(-c3ccc(-c4ccc(C(=O)O)cc4O)cc3)cc12
# output 6.70

# input Could you share which pEC50 value was measured for CSc1ccc(-c2ccc(-c3cc4c(CCC(=O)O)n[nH]c4cc3Cl)cc2)c(O)c1 ?
# output 6.25

# input Using the record for Cc1cc(C)c(-c2ccc(-c3cc4c(CCC(=O)O)n[nH]c4cc3Cl)cc2)c(O)c1 , report its pEC50.
# output 7.02

# input Consider the compound shown here: COc1ccc(C)c(-c2ccc(-c3cc4c(CCCC(=O)O)n[nH]c4cc3Cl)cc2)c1O What is its recorded pEC50?
# output 7.06

# input Entry COc1ccc(C)c(-c2ccc(-c3cc4c(CCC(=O)O)n[nH]c4cc3Cl)cc2)c1O has what pEC50?
# output 7.85

# input # pEC50 lookup, item NCc1ccc(-c2ccc(-c3cc4c(CCC(=O)O)n[nH]c4cc3Cl)cc2)c(O)c1
# output 7.42

# input # get_value(readout='pEC50', item= O=C(CCc1n[nH]c2cc(Cl)c(-c3ccc(-c4ccccc4O)cc3)cc12)OC1OC(C(=O)O)C(O)C(O)C1O (stereo not shown) )
# output 7.54

# input pEC50 lookup needed for NS(=O)(=O)c1ccc(-c2ccc(-c3cc4c(CCC(=O)O)n[nH]c4cc3Cl)cc2)c(O)c1 , thanks.
# output 7.39

# input Which measured pEC50 value corresponds to Cc1cscc1-c1ccc(-c2cc3c(CCC(=O)O)n[nH]c3cc2Cl)cc1 ?
# output 6.27

# input What value of pEC50 has been reported for the following compound? O=C(O)CCc1n[nH]c2cc(Cl)c(-c3ccc(-c4ccc(Cl)cc4O)cc3)cc12
# output 6.21

# input Endpoint output: pEC50 of CN(C)C(=O)c1ccc(-c2ccc(-c3cc4c(CCC(=O)O)n[nH]c4cc3Cl)cc2)c(O)c1 . Value?
# output 7.21

# input What measured pEC50 goes with O=C(O)CCc1n[nH]c2cc(Cl)c(-c3ccc(-c4cccc(Cl)c4O)cc3)cc12 ?
# output 6.58

# input GET /values?readout=pEC50&item= NC(=O)COc1ccc(-c2ccc(-c3cc4c(CCC(=O)O)n[nH]c4cc3Cl)cc2)cc1
# output 5.74

# input Entry CCOc1cccc(-c2ccc(-c3cc4c(CCC(=O)O)n[nH]c4cc3Cl)cc2)c1O has what pEC50?
# output 6.97

# input GET /values?readout=pEC50&item= COc1nc(-c2ccc(-c3cc4c(CCC(=O)O)n[nH]c4cc3Cl)cc2)cs1
# output 6.26

# input What value of pEC50 has been reported for the following compound? NC(=O)CSc1ccc(-c2ccc(-c3cc4c(CCC(=O)O)n[nH]c4cc3Cl)cc2)cc1
# output 7.08

# input Name the reported pEC50 value associated with the compound NS(=O)(=O)c1ccc(-c2ccc(-c3cc4c(CCC(=O)O)n[nH]c4cc3Cl)cc2)cc1
# output 6.51

# input Given the compound CS(=N)(=O)c1ccc(-c2ccc(-c3cc4c(CCC(=O)O)n[nH]c4cc3Cl)cc2)cc1 (stereo not shown) , what is its reported pEC50?
# output 6.97
